Measured values drawn from patent US6913917B2 for this set.

Assay: Hydrolysis of 3H-cocaine by Mab's (kinetic measurements)
Settings: rate acceleration over spontaneous rate (kcat/kuncat)
valueKind: kcat/ko

Mab 6A12: anti-cocaine catalytic monoclonal antibody elicited by TSA 1 (antibody, mouse) heavy: DVQLQESGPGLVKPSQSLSLTCTVTGNSITSDYAWTWIRQFPGNKLEWMGYIRHIYGTRYNPSLISRISITRDTSKNQFFLQLDSVTAEDTATYYCVRYHYYGSAYWGQGTLVTVSAAKTTP light: DMVMTQDELSNPVTSGESVSISCRSSRSLLYRDGKTYLNWFLQRPGRSPQLLIYLMSTRASGVSDRFSGSGSGTDFTLEISRVKAEDVGVYYFQHFEDYPFTFGSGTKLEIKR; 880
Mab 3B9: anti-cocaine catalytic monoclonal antibody elicited by TSA 1 (antibody, V domains shown, mouse) VH: DVQLQESGPGLVKPSQSLSLTCTVTGNSITSDYAWTWIRQFPGNKLEWMGYIRHIYGTRYNPSLISRISITRDTSKNQFFLQLDSVTAEDTATYYCVRYHYYGSAYWGQGTLVTVSAAKTTP VL: DIVMTQDELSNPVTSGESVSISCRSSRSLLYRDGKTYLNWFLQRPGRSPQLLIYLMSTRSSGVSDRFSGSGSGTDFTLEISRVKAEDVGVYYCQHFVDYPFTFGSGTKLEIKR; 1100
